Reported Kp at 24 h values for a set of compounds
- assay: In vivo pharmacokinetics in rats (i.v., oral, intratracheal)
- conditionLabel: other: intratracheal (i.t.); rat, i.t.; ratio of lung concentration 24 h after dose to blood Cmax after same dose; read-out: Lung/blood split
// response body must contain only the number

compound	Kp at 24 h
CCNC(=O)[C@H]1O[C@@H](n2cnc3c(NC(CC)CC)nc(NCCNC(=O)Nc4ccncc4)nc32)[C@H](O)[C@@H]1O [Compound 1]	1.8
CCNC(=O)[C@H]1O[C@@H](n2cnc3c(NCC(c4ccccc4)c4ccccc4)nc(NCCNC(=O)Nc4cc[n+](C)cc4)nc32)[C@H](O)[C@@H]1O [Compound 3]	1800
CCNC(=O)[C@H]1O[C@@H](n2cnc3c(NCC(c4ccccc4)c4ccccc4)nc(C(=O)NCCNC(=O)NC4CCN(c5ccccn5)CC4)nc32)[C@H](O)[C@@H]1O [UK-432,097, reference compound]	2.7

## Input Record request: Kp at 24 h value, item CCNC(=O)[C@H]1O[C@@H](n2cnc3c(NC(CC)CC)nc(NCCNC(=O)Nc4cc[n+](C)cc4)nc32)[C@H](O)[C@@H]1O [Compound 2]
## Output 460

Hey, just so you know, these numbers are from paper PMC4492750.
